molecular target: Grb2 SH2 (UniProt P62993); experiment: SH2 binding enrichment of the phosphorylated peptide, bacterial display (enrichment ratio); higher = better substrate or ligand; peptides without Tyr show the background
Quantity name: SH2 binding enrichment

Worked cases, answers included:
[[record]]
sequence_string = "IYHLSYHHNCE [PDE6B_Y227_L228H]"
readout_value = 1.09

[[record]]
sequence_string = "FGFPGYQSKHF [TIMP3_Y177_YF]"
readout_value = 1.07


a: PEIIAYQPFGK [PRKCG_Y529_YF]
b: EGVPLYESATT [DCC_Y809]
c: ALKKPYGVLYK [RPF2_Y59]
Problem: List the 3 entries from lowest SH2 binding enrichment to highest SH2 binding enrichment value. Record the ranking as a list of labels in the requested order.
Solution: b, a, c

1: RLLRGYRQDAF [HLA-A_Y137_F133L_YF]
2: QNKEDYDGLKE [GSTO1_Y139_A140D]
Problem: // compare measured SH2 binding enrichment between 1 and 2 ; output the lower one Give the chosen item's label as your response.
Solution: 1

I: PEQAAYQKVVA [HBB_Y131_V127E]
II: CQAHGYFCQLI [STK11_Y156]
Problem: // compare measured SH2 binding enrichment between I and II ; output the lower one Give the chosen item's label as your response.
Solution: I
(I: 0.782, II: 1.2)

a: ELAINYQEQAS [SLC9A9_Y591]
b: RRAKGYPIFLF [ITGB2_Y125_D128Y_YF]
Problem: // compare measured SH2 binding enrichment between a and b ; output the lower one Give the chosen item's label as your response.
Solution: b

a: RRIHSYRGFLW [VHL_Y112_H115Y_YF]
b: CTTIQYNYMCN [TP53_Y234_H233Q]
Problem: // compare measured SH2 binding enrichment between a and b ; output the lower one Give the chosen item's label as your response.
Solution: a

I: PAGSGYPAFLG [ATP6V1A_Y374_D371G_YF]
II: NTGYYYDLYGG [PTPN11_Y63_D61Y]
Problem: // compare measured SH2 binding enrichment between I and II ; output the lower one Give the chosen item's label as your response.
Solution: I
(I: 0.828, II: 1.33)

A: RAILNYIASKF [GSTA3_Y74_YF]
B: TIAIRYSHSRR [ACOXL_Y260]
Problem: Return label of the item with the larger SH2 binding enrichment. Candidates: A , B . Give the chosen item's label as your response.
Solution: A

###

molecular target: FGFR1 (UniProt P11362); assay: phosphorylation enrichment, bacterial display (enrichment ratio); higher = better substrate or ligand; peptides without Tyr show the background
Sequence (P11362 whole entry, looked up): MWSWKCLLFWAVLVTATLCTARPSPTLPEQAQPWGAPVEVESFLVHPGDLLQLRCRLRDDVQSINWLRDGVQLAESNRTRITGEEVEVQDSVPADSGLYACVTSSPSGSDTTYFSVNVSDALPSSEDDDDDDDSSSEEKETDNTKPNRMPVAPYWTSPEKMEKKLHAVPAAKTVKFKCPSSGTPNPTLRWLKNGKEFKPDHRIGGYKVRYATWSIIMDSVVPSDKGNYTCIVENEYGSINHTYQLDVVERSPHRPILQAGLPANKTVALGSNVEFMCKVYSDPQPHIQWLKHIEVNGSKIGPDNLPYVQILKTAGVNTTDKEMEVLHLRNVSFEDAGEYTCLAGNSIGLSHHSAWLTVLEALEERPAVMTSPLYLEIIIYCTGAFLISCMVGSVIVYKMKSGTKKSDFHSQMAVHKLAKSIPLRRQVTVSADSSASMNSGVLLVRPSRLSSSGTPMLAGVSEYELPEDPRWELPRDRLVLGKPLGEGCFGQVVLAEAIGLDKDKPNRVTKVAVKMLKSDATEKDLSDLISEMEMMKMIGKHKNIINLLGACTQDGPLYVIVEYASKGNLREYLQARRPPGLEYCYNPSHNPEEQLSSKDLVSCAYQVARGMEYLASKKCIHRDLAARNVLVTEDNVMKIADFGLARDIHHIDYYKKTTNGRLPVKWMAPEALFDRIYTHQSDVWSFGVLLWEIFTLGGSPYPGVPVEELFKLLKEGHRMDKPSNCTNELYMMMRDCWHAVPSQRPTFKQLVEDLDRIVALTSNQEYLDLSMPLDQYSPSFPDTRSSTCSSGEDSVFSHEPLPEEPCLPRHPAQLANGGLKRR
# key: entry, value: phosphorylation enrichment
Number, no unit, nothing else.

[[record]]
sequence_string = "GLCSYYETSKM [MAGED2_Y449_R446C]"
readout_value = 6.32

[[record]]
sequence_string = "GFSRHCEDGFP [CTNND1_Y217_Y217C_YF]"
readout_value = 0.471


Problem: Report phosphorylation enrichment for VQVAFYTMMMN [SPATA17_Y84_YF]
Solution: 1.84

Problem: Report phosphorylation enrichment for PQDVTYAQLHS [LILRB4_Y412]
Solution: 0.351

Problem: Report phosphorylation enrichment for VLNHAYENLTR [SYNE2_Y3255_D3253H]
Solution: 0.494

Problem: Report phosphorylation enrichment for MNKNAYHNVTT [ST3GAL6_Y306_A311T]
Solution: 0.358

Problem: Report phosphorylation enrichment for TESALYGCTVV [KIAA1804_Y724_L729V]
Solution: 0.517

Problem: Report phosphorylation enrichment for FVTCTYSPALN [TP53_Y126_S121F]
Solution: 0.464

Problem: Report phosphorylation enrichment for SDTGQYQCLVF [AXL_Y115]
Solution: 1.65

Problem: Report phosphorylation enrichment for AAFNKYDQERF [CDC73_Y293_R292K_YF]
Solution: 0.412

Problem: Report phosphorylation enrichment for VRSTEYPCAGL
Solution: 0.447

Problem: Report phosphorylation enrichment for RAKLFYQEVPA [METTL11B_Y76]
Solution: 2.88

Problem: Report phosphorylation enrichment for YRVAGYKTQGG [TIA1_Y383_E384K]
Solution: 0.434

Problem: Report phosphorylation enrichment for HSRTRYERNIE [F2_Y434]
Solution: 0.835

Problem: Report phosphorylation enrichment for EWKNNCPRLRE [OPA1_Y582_Y582C]
Solution: 0.508

Problem: Report phosphorylation enrichment for KGEDFYCVTYH [FHL1_Y149_C153Y]
Solution: 1.1

Problem: Report phosphorylation enrichment for ELTSVYDSRAR [SENP1_Y349]
Solution: 0.491

Problem: Report phosphorylation enrichment for CQKRKYIEIDS [SDAD1_Y580_S575C]
Solution: 0.55

Problem: Report phosphorylation enrichment for NLMPAYYKCIQ [CYP21A2_Y190]
Solution: 0.57

###

# key: entry, value: phosphorylation enrichment
system: Fer (mouse); test: phosphorylation enrichment, bacterial display (enrichment ratio); higher = better substrate or ligand; peptides without Tyr show the background
Number, no unit, nothing else.

[[record]]
sequence_string = "KVALVYGQMNQ [ATP5F1B_Y269_E274Q]"
quantity_name = "phosphorylation enrichment"
readout_value = 0.506

[[record]]
sequence_string = "DAHFTYSRFPW [LY75_Y888_D884A_YF]"
quantity_name = "phosphorylation enrichment"
readout_value = 0.499

[[record]]
sequence_string = "AGTILYHAHLG [ASS1_Y291_D296G]"
quantity_name = "phosphorylation enrichment"
readout_value = 0.495

[[record]]
sequence_string = "WNNLDYMDSRR [GAA_Y407_D404N]"
quantity_name = "phosphorylation enrichment"
readout_value = 0.498

[[record]]
sequence_string = "RRAKGYPIFLF [ITGB2_Y125_D128Y_YF]"
quantity_name = "phosphorylation enrichment"
readout_value = 0.581

[[record]]
sequence_string = "SIKGKYVTALY [KCNH2_Y611_D609G]"
quantity_name = "phosphorylation enrichment"
readout_value = 0.329


Problem: Report phosphorylation enrichment for GCVRMYELVHR [GLE1_Y135]
Solution: 4.34

Problem: Report phosphorylation enrichment for QISQDYGVLLE [PRDX3_Y172_R170Q]
Solution: 0.673

Problem: Report phosphorylation enrichment for PSGPTYRGAVP [ASAH1_Y43]
Solution: 0.417

Problem: Report phosphorylation enrichment for PASLSYLSFEG [EXOSC3_Y143]
Solution: 0.501

Problem: Report phosphorylation enrichment for GDGRFYMMEAI [PGM1_Y66_K68M]
Solution: 0.539

###

tested on: c-Abl (mouse); assay: phosphorylation enrichment, bacterial display (enrichment ratio); higher = better substrate or ligand; peptides without Tyr show the background
Quantity name: phosphorylation enrichment
Number, no unit, nothing else.

Worked cases, answers included:
[[record]]
sequence_string = "WISNRYLDFSS [PRPH2_Y184]"
readout_value = 0.793

[[record]]
sequence_string = "VIECSYTSADG [DHCR7_Y382]"
readout_value = 0.825


Problem: Report phosphorylation enrichment for ASRKFYAMKIL [AKT3_Y174_G171R_YF]
Solution: 0.441

Problem: Report phosphorylation enrichment for ASENVYVNIAH [CTSC_Y150]
Solution: 0.8

Problem: Report phosphorylation enrichment for FTRNFYVWAVL [CYBA_Y88_R90W_YF]
Solution: 1.61

###

biological target: EPHB1 (UniProt P54762); assay: phosphorylation enrichment, bacterial display (enrichment ratio); higher = better substrate or ligand; peptides without Tyr show the background
Sequence (P54762 whole entry, looked up): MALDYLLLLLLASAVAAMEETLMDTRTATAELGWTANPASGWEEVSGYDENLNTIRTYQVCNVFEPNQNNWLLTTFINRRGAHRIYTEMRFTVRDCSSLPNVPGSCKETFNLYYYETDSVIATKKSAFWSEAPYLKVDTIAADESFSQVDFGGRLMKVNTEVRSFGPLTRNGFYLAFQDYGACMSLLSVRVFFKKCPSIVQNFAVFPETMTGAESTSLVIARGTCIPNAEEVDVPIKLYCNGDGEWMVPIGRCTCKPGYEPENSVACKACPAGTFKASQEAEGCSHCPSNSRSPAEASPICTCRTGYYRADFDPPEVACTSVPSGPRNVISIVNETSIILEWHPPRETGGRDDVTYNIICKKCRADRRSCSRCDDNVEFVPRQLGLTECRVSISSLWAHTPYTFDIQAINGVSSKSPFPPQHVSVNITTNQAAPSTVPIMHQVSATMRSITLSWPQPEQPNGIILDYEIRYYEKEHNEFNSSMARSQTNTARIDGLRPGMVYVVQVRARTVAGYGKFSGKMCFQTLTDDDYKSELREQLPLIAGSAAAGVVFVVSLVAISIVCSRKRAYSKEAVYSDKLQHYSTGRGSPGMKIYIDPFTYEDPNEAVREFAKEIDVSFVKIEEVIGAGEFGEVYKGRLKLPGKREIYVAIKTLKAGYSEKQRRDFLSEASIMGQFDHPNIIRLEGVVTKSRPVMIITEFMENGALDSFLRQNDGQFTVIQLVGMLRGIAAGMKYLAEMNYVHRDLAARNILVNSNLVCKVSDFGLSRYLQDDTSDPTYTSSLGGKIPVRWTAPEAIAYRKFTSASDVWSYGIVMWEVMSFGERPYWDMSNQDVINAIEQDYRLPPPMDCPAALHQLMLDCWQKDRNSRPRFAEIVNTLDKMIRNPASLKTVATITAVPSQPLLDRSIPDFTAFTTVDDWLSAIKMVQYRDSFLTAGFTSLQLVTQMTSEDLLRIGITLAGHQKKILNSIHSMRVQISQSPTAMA
# key: entry, value: phosphorylation enrichment
Number, no unit, nothing else.

Worked cases, answers included:
[[record]]
sequence_string = "TQTPPYVKKHP [LARP1B_Y457]"
measured_target = "EPHB1 (UniProt P54762)"
quantity_name = "phosphorylation enrichment"
readout_value = 0.458

[[record]]
sequence_string = "PIPAAYNRYDQ [CDC73_Y290]"
measured_target = "EPHB1 (UniProt P54762)"
quantity_name = "phosphorylation enrichment"
readout_value = 0.433


Problem: # return phosphorylation enrichment of EIRTQYEAMAS [GFAP_Y242] (system: EPHB1 (UniProt P54762))
Solution: 0.45

Problem: # return phosphorylation enrichment of EWKNNCPRLRE [OPA1_Y582_Y582C] (system: EPHB1 (UniProt P54762))
Solution: 0.492

Problem: # return phosphorylation enrichment of WNNLDYMDSRR [GAA_Y407_D404N] (system: EPHB1 (UniProt P54762))
Solution: 0.914

Problem: # return phosphorylation enrichment of YQGGTYSKACT [FGG_Y380_S384C] (system: EPHB1 (UniProt P54762))
Solution: 0.428

Problem: # return phosphorylation enrichment of TISPFYRQSLF [CRYAA_Y48_YF] (system: EPHB1 (UniProt P54762))
Solution: 0.435

Problem: # return phosphorylation enrichment of RALCHYFKLNI [ETV6_Y401_R399C_YF] (system: EPHB1 (UniProt P54762))
Solution: 0.691
